- assay-system: phosphorylated ERBB2 (pERBB2) (Homo sapiens, UniProt P04626)
- Construct: endogenous in cells
- Sequence (P04626 23-1255): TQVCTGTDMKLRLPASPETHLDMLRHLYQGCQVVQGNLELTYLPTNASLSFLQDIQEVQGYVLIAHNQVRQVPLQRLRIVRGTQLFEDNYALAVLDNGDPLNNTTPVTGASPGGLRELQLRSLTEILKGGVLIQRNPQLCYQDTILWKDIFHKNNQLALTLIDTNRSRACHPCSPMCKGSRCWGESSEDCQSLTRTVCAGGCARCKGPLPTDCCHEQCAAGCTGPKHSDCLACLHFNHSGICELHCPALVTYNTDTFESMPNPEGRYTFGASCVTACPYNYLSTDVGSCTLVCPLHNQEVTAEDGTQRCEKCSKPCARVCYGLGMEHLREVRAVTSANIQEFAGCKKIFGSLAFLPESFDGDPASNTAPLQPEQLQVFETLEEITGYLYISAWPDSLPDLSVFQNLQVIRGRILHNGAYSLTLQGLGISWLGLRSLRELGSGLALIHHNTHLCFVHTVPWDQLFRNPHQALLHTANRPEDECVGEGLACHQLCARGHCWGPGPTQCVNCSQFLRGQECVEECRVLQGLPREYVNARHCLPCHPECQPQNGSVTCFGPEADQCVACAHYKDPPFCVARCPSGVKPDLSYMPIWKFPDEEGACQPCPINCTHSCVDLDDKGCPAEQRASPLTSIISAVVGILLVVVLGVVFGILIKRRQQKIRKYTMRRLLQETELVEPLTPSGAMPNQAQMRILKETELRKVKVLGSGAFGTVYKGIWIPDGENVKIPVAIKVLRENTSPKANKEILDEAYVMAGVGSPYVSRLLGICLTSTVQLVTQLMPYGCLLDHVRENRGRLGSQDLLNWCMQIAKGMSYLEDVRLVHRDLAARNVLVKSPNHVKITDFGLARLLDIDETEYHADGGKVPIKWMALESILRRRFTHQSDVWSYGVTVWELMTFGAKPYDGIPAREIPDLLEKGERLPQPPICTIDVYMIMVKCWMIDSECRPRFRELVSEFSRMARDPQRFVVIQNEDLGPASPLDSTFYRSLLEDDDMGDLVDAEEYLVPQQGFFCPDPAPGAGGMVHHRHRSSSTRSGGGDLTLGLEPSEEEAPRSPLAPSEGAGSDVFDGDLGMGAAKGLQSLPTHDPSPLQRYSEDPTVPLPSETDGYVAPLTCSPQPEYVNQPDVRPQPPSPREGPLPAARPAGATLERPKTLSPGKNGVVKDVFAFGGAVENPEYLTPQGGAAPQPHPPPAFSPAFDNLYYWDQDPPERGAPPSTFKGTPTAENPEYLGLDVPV
- protocol-notes: Detection of phosphorylated ERBB2 (pERBB2) by ELISA in BT-474 cells
- assay-setup: four hour incubation with compound
parameter: IC50 (nM)

Worked cases, answers included:
[
  {
    "chemical-smiles": "C=CC(=O)N1CCN(c2ccc3ncnc(Nc4ccc(Oc5ccc6c(c5)ncn6C)c(C)c4)c3n2)[C@@H](C)C1",
    "unit-label": "nM",
    "IC50": 28.2
  },
  {
    "chemical-smiles": "C=CC(=O)N1CCN(c2ccc3ncnc(Nc4ccc(Cc5ccn6ncnc6c5)c(C)c4)c3c2)C[C@H]1C",
    "unit-label": "nM",
    "IC50": 33.1
  },
  {
    "chemical-smiles": "C=CC(=O)N1CC2CCC(C1)N2c1ccc2ncnc(Nc3ccc(Cc4ccn5ncnc5c4)c(C)c3)c2n1",
    "unit-label": "nM",
    "IC50": 21.2
  },
  {
    "chemical-smiles": "C=CC(=O)N1CCN(c2ccc3ncnc(Nc4ccc(Cc5ccc6c(c5)ncn6C)c(C)c4)c3c2)C[C@H]1C",
    "unit-label": "nM",
    "IC50": 21.9
  },
  {
    "chemical-smiles": "C=CC(=O)N1CC[C@H](Oc2ccc3ncnc(Nc4ccc(Oc5ccc6c(c5)ncn6C)c(C)c4)c3c2)C1",
    "unit-label": "nM",
    "IC50": 7.56
  }
]

1 = CC#CC(=O)N1CCN(c2ccc3ncnc(Nc4ccc(Oc5ccn6ncnc6c5)c(C)c4)c3n2)C[C@H]1C
2 = C=CC(=O)N1CCN(c2ccc3ncnc(Nc4ccc(O[C@@H]5CCCOC5)c(C)c4)c3c2)CC1
3 = C=CC(=O)N1CC2CC(C1)N2c1ccc2ncnc(Nc3ccc(Oc4ccn5ncnc5c4)c(C)c3)c2n1
Hello, I need these entries ordered by IC50, highest reading first. Thanks! Present the labels in the sequence the task asks for.
2, 1, 3
(2: 47.6 nM, 1: 25.2 nM, 3: 17 nM)

1 = Cc1cc(Nc2ncnc3ccc(N4CCN(C(=O)/C=C/CN(C)C)CC4)c(F)c23)ccc1Cc1ccn2ncnc2c1
2 = Cc1cc(Nc2ncnc3ccc(N4CCN(C(=O)/C=C/CN(C)C)[C@H](C)C4)nc23)ccc1Cc1ccc2c(c1)ncn2C
Which of the two gives a bigger number for IC50: 1 or 2 ? Please indicate the selected item by its label.
2

1 = CC#CC(=O)N1CC2CC(C1)N2c1ccc2ncnc(Nc3ccc(Oc4ccn5ncnc5c4)c(C)c3)c2n1
2 = C=CC(=O)N1CC[C@@H](Nc2ccc3ncnc(Nc4ccc(Oc5ccn6ncnc6c5)c(C)c4)c3n2)C1
3 = C=CC(=O)N1CCN(c2ccc3ncnc(Nc4ccc(Cc5ccn6ncnc6c5)c(C)c4)c3c2)[C@@H](C)C1
4 = Cc1cc(Nc2ncnc3cnc(N4CCN(C(=O)/C=C/CN(C)C)[C@H](C)C4)nc23)ccc1Cc1ccn2ncnc2c1
Place the items in sequence of falling IC50. Response field: labels, in requested order.
1, 4, 3, 2
